Values compiled from patent US12448383B2.

# Tested on: Caco-2 cells (clone C2BBe1)
# PROCEDURE DETAILS: CACO-2 permeability
# Assay type: in vitro ADME
# Design: unit not given here
# TEST PARAMETERS: basolateral to apical
# Method: Pre-plated Caco-2 cells (clone C2BBel) were obtained from Sigma-Aldrich, Inc. (Atlanta, GA). Cell monolayers were grown to confluence on collagen-coated, microporous, polycarbonate membranes in 24-well transwell plates for 21 days. […] After an initial equilibration with transport buffer, TEER values were read to test membrane integrity. […] Samples were analyzed by LC-MS/MS.
Label 0.0 if DM Caco2 B to A falls below 10; label 1.0 in every other case.

# count of solved cases: 5
COMPOUND	LABEL VALUE
N#C[C@@]1(c2ccc3c(N)ncnn23)O[C@H](COC(=O)OCCN2CCOCC2)[C@@H](O)[C@H]1O [Compound 92]	0.0
N#CC1(COC(=O)OC[C@H]2O[C@@](C#N)(c3ccc4c(N)ncnn34)[C@H](O)[C@@H]2O)CC1 [Compound 118]	0.0
CC(C)OC(=O)Nc1ncnn2c([C@]3(C#N)O[C@H](COC(=O)OC(C)(C)C)[C@@H](O)[C@H]3O)ccc12 [Compound 63]	1.0
N#C[C@@]1(c2ccc3c(N)ncnn23)O[C@H](COC(=O)OCC2(c3ccccc3)CC2)[C@@H](O)[C@H]1O [Compound 116]	1.0
N#C[C@@]1(c2ccc3c(N)ncnn23)O[C@H](COC(=O)OC2CC(F)(F)C2)[C@@H](O)[C@H]1O [Compound 73]	0.0

Decide: DM Caco2 B to A of CC(C)OC(=O)OC[C@H]1O[C@@](C#N)(c2ccc3c(N)ncnn23)[C@H](O)[C@@H]1OC(=O)CCCCCCC(=O)O [Compound 130] >= 10?
0.0

Decide: DM Caco2 B to A of CC1=CCC(C(C)(C)OC(=O)OC[C@H]2O[C@@](C#N)(c3ccc4c(N)ncnn34)[C@H](O)[C@@H]2O)CC1 (stereo partly shown) [Compound 155] >= 10?
1.0

Decide: DM Caco2 B to A of CCC(C)(CC)OC(=O)OC[C@H]1O[C@@](C#N)(c2ccc3c(N)ncnn23)[C@H](O)[C@@H]1O [Compound 69] >= 10?
0.0

Decide: DM Caco2 B to A of CC(C)OC(=O)OC[C@H]1O[C@@](C#N)(c2ccc3c(N)ncnn23)[C@H](OC(=O)OC(C)C)[C@@H]1OC(=O)OC(C)C [Compound 81] >= 10?
1.0

Decide: DM Caco2 B to A of N#C[C@@]1(c2ccc3c(N)ncnn23)O[C@H](COC(=O)OCc2ccccc2)[C@@H](O)[C@H]1O [Compound 13] >= 10?
0.0

Decide: DM Caco2 B to A of CCOC(=O)C(C)(C)OC(=O)OC[C@H]1O[C@@](C#N)(c2ccc3c(N)ncnn23)[C@H](O)[C@@H]1O [Compound 77] >= 10?
0.0

Decide: DM Caco2 B to A of N#C[C@@]1(c2ccc3c(N)ncnn23)O[C@H](COC(=O)OC2CCCC2)[C@@H](O)[C@H]1O [Compound 12] >= 10?
1.0

Decide: DM Caco2 B to A of CC(C)C(=O)O[C@H]1[C@@H](OC(=O)C(C)C)[C@](C#N)(c2ccc3c(N)ncnn23)O[C@@H]1COC(=O)OC(C)(C)C [Compound 58] >= 10?
0.0
